SUBJECT OF TEST: orotidine 5'-monophosphate decarboxylase (ScOMPDC) (Saccharomyces cerevisiae, UniProt P03962, R235A)
Sequence (P03962 2-267 R235A): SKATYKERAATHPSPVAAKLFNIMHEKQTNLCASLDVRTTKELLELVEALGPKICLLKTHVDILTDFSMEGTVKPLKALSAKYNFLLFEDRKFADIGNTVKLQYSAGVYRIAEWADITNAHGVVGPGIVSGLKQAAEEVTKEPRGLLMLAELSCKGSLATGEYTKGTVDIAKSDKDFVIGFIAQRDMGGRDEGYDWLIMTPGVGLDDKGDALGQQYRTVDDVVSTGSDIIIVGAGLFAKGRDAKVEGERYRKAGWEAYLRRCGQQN
ASSAY OVERVIEW: […] NMR deuterium exchange kinetics with purified enzyme, Michaelis-Menten fit
ENDPOINT NAME: Kd (mM)
Use mM as the unit, but write only the number.

QUERY: Entry under review: O=c1[nH]c(=O)n([C@@H]2O[C@H](COP(=O)(O)O)[C@@H](O)[C@H]2O)cc1F [h-FUMP, 5-fluorouridine 5'-monophosphate] . Reported Kd?
RESULT: 5

Data provenance: paper PMC3838641
